The measurements presented in this section are drawn from patent US11999746B2.

target: recombinant human Lp-PLA2 (Homo sapiens, UniProt Q13093); experiment: (1b) hrThioPAF assay, recombinant human Lp-PLA2; assay type: biochemical; settings: Examples 266-412 were tested here, one experiment or average of multiple experiments, read-out: rhLp-PLA2 (pIC50) (converted)
Sequence (Q13093 22-441): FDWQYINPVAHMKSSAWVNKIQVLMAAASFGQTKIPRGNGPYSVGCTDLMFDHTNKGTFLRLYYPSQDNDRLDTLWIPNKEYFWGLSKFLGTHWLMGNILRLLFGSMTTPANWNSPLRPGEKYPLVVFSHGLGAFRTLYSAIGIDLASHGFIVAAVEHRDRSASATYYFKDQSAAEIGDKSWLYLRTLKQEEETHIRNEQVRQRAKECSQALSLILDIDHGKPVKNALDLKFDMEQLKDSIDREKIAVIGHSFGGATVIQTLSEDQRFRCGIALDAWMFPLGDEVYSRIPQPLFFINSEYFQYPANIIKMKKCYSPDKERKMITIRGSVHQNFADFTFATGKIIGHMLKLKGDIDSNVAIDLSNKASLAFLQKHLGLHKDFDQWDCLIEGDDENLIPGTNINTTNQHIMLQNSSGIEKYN
Where a name gives a salt, the structure may show the parent alone.
Recorded IC50, one value per entry.

{"columns": ["molecule", "IC50"],
 "data": [
  ["NC1(C(=O)N2CCN3c4cc(OCc5ccc(F)c(F)c5)nc(=O)n4CC3C2)CCCCC1 (stereo not shown) [Example E347]", "≤ 10 µM"],
  ["O=c1nc(OCc2ccc(F)c(F)c2)cc2n1CC1(CCOCC1)N2 [Example 402]", "≤ 10 µM"],
  ["CCN1CCN2c3cc(OCc4ccc(F)c(C#N)c4)nc(=O)n3CC2C1 (stereo not shown) [Example E280]", "≤ 10 µM"],
  ["CN1c2cc(OCc3cc(F)c(Oc4cnn(C)c4)c(F)c3)nc(=O)n2CC12COC2 [Example E397]", "≤ 10 µM"],
  ["CC(C)(N)C(=O)N1CCN2c3cc(OCc4ccc(F)c(F)c4)nc(=O)n3CC2C1 (stereo not shown) [Example E335]", "≤ 10 µM"],
  ["CN1c2cc(OCc3ccc(F)c(F)c3)nc(=O)n2CC12COC2 [Example 398]", "≤ 10 µM"],
  ["O=c1nc(OCc2ccc(Cl)c(Br)c2)cc2n1CC1CNCCN21 (stereo not shown) [Example E275]", "≤ 10 µM"],
  ["N#Cc1cc(COc2cc3n(c(=O)n2)CC2CNCCN32)ccc1F (stereo not shown) [Example E266]", "≤ 0.1 µM"],
  ["CC(C)S(=O)(=O)N1CCN2c3cc(OCc4ccc(F)c(C#N)c4)nc(=O)n3CC2C1 (stereo not shown) [Example E295, 2,2,2-trifluoroacetate]", "≤ 10 µM"],
  ["O=c1nc(NCc2ccc(F)c(F)c2)cc2n1CC1C[S+]([O-])CCN21 (stereo not shown) [Example E375]", "≤ 10 µM"],
  ["O=c1nc(OCc2cc(F)c(Oc3cncc(C(F)(F)F)c3)c(F)c2)cc2n1CC1C[S+]([O-])CCN21 (stereo not shown) [Example E372]", "≤ 0.001 µM"],
  ["Cc1ccc(Oc2c(F)cc(COc3cc4n(c(=O)n3)C[C@@H]3C[C@H](O)CN43)cc2F)cn1 [Example E385]", "≤ 10 µM"],
  ["O=C1CN2c3cc(OCc4cc(F)c(Oc5ccnc(C(F)(F)F)c5)c(F)c4)nc(=O)n3CC2CN1 (stereo not shown) [Example E351]", "≤ 0.001 µM"],
  ["O=C([C@@H]1CCCN1)N1CCN2c3cc(OCc4ccc(F)c(F)c4)nc(=O)n3CC2C1 (stereo partly shown) [Example E340]", "≤ 10 µM"],
  ["N#Cc1cc(COc2cc3n(c(=O)n2)CC2CN(C(=O)C4CC4)CCN32)ccc1F (stereo not shown) [Example E292, 2,2,2-trifluoroacetate]", "≤ 10 µM"],
  ["O=C([C@@H]1CC(F)(F)CN1)N1CCN2c3cc(OCc4ccc(F)c(F)c4)nc(=O)n3CC2C1 (stereo partly shown) [Example E342]", "≤ 10 µM"],
  ["O=c1nc(OCc2cc(F)c(Oc3ccnc(C(F)(F)F)c3)c(F)c2)cc2n1CC1C[S+]([O-])CCN21 (stereo not shown) [Example E369]", "≤ 10 µM"],
  ["CN(C)CC(=O)N1CCN2c3cc(OCc4ccc(F)c(F)c4)nc(=O)n3CC2C1 (stereo not shown) [Example E346]", "≤ 10 µM"],
  ["N#Cc1cc(COc2cc3n(c(=O)n2)CC2(CCN(Cc4ccccc4)CC2)N3)ccc1F [Example 412]", "≤ 10 µM"],
  ["N#Cc1cc(COc2ccc(COc3cc4n(c(=O)n3)CC3CNC(=O)CN43)cc2C#N)ccc1F (stereo not shown) [Example E350]", "≤ 10 µM"],
  ["N#Cc1cc(COc2cc3n(c(=O)n2)CC2CN(C(=O)CCN)CCN32)ccc1F (stereo not shown) [Example E288]", "≤ 10 µM"],
  ["N#Cc1cc(COc2cc3n(c(=O)n2)CC2CN(C(=O)C(F)(F)F)CCN32)ccc1F (stereo not shown) [Example E323]", "≤ 10 µM"],
  ["O=C([C@H]1CCCN1)N1CCN2c3cc(OCc4ccc(F)c(F)c4)nc(=O)n3CC2C1 (stereo partly shown) [Example E343]", "≤ 10 µM"],
  ["O=c1nc(OCc2cc(F)c(Oc3ccnc(C(F)(F)F)c3)c(F)c2)cc2n1C[C@@H]1C[C@H](O)CN21 [Example E383]", "≤ 0.001 µM"],
  ["O=c1nc(OCc2ccc(F)c(F)c2)cc2n1CC1CN(CC(F)(F)F)CCN21 (stereo not shown) [Example E338, trifluoroacetate]", "0.01 µM"],
  ["N#Cc1cc(COc2cc3n(c(=O)n2)C[C@H]2C[C@@H](N)CN32)ccc1F [Example E389]", "≤ 10 µM"],
  ["O=C([C@@H]1CCN1)N1CCN2c3cc(OCc4ccc(F)c(F)c4)nc(=O)n3CC2C1 (stereo partly shown) [Example E339]", "≤ 10 µM"],
  ["CC(C)C(=O)N1CCN2c3cc(OCc4ccc(F)c(F)c4)nc(=O)n3CC2C1 (stereo not shown) [Example E310]", "≤ 0.1 µM"],
  ["O=C1CN2c3cc(OCc4ccc(F)c(F)c4)nc(=O)n3CC2CN1CC(F)(F)F (stereo not shown) [Example E358]", "≤ 10 µM"],
  ["NC1(C(=O)N2CCN3c4cc(OCc5ccc(F)c(F)c5)nc(=O)n4CC3C2)CCOCC1 (stereo not shown) [Example E345]", "≤ 10 µM"],
  ["O=c1nc(OCc2ccc(F)c(F)c2)cc2n1CC1CN(S(=O)(=O)C3CC3)CCN21 (stereo not shown) [Example E331]", "≤ 10 µM"]
]}
